The values you see were collected from PubChem BioAssay (NCI).

- test summary: NCI Yeast Anticancer Drug Screen. Data for the sgs1 mgt1 strain (AID 161);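 also: 0% = growth of cultures given vehicle only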
- condition: S. cerevisiae sgs1 mgt1 strain, at 50.0 µM, active compounds read high
The panel holds about 79,000 compounds, 15% with a hit somewhere; the sample as a whole holds those more often. Activity calls are given as the source filed them. Rule as the data show it: active = growth inhibition above about 70%; inactive = the rest.
property measured: growth inhibition

[[record]]
compound = "COc1ccc(OC)c(N=Cc2ccc(C=Nc3cc(OC)ccc3OC)cc2)c1"
val = "-10.6% (inactive)"

[[record]]
compound = "Oc1ccc2ccccc2c1C=NCc1c(O)ccc2ccccc12"
val = "-11.2% (inactive)"

[[record]]
compound = "CC(SC(=S)N1CCOCC1)C(=O)O (stereo not given)"
val = "-1.6% (inactive)"

[[record]]
compound = "COc1ccc(C(Cc2ccccc2)Nc2ccccc2)cc1 (stereo not given)"
val = "28.6% (inactive)"

[[record]]
compound = "CCOC(=O)CCC(C(=O)OCC)c1nc2ccccc2[nH]c1=O (stereo not given)"
val = "12.6% (inactive)"


###

Each entry below lists one item and its recorded growth inhibition value.
- test summary: NCI Yeast Anticancer Drug Screen. Data for the mlh1 rad18 strain (AID 175)
- condition: S. cerevisiae mlh1 rad18 strain growth inhibition; at 50.0 µM; active compounds read high
Compounds without any hit were thinned out: in the full panel of roughly 79,000, 15% have a hit.
property measured: growth inhibition (%)

[[record]]
compound = "COc1ccc(C(O)c2ccc(C)cc2)cc1 (stereo not drawn)"
unit_name = "%"
val = -17.3

[[record]]
compound = "N#Cc1nc(CCC(C(=O)O)N2C(=O)c3ccccc3C2=O)oc1N (stereo not drawn)"
unit_name = "%"
val = -46.9

[[record]]
compound = "CC1CC(=O)CC(C)C1 (stereo not drawn)"
unit_name = "%"
val = 16.6


###

Each entry below lists one item and its recorded growth inhibition value.
- test summary: NCI Yeast Anticancer Drug Screen. Data for the rad50 strain (AID 155);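 also: 0% = growth of vehicle-only cultures of the same strain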
- condition: S. cerevisiae rad50 strain growth inhibition; at 50.0 µM; active compounds read high
The panel holds about 79,000 compounds, 15% with a hit somewhere; the sample as a whole holds those more often.
property measured: growth inhibition (%)

[[record]]
molecule = "C=CCOC(=O)C(C#N)C(C)CC(=O)OCC (stereo not drawn)"
property_measured = "growth inhibition"
val = -5.65

[[record]]
molecule = "CCC(=O)Oc1ccc(CCC(C)=O)cc1"
property_measured = "growth inhibition"
val = -0.55

[[record]]
molecule = "Cc1cc(C(=O)O)cc(C)c1N(C)Cc1cnc2nc(N)nc(N)c2n1"
property_measured = "growth inhibition"
val = 5.6

[[record]]
molecule = "O=C(CSc1nnc(Cc2ccccc2)o1)Nc1ccc(Cl)cc1Cl"
property_measured = "growth inhibition"
val = -18.8

[[record]]
molecule = "CSc1cccc(N=C(C#N)C2=C(O)c3ccccc3C2=O)c1"
property_measured = "growth inhibition"
val = 21.1

[[record]]
molecule = "Cc1ccc(S(=O)(=O)NC2C(=O)c3ccccc3C(=O)C2n2cnc3ccccc32)cc1 (stereo not drawn)"
property_measured = "growth inhibition"
val = 14.3

[[record]]
molecule = "Cc1ccc2c(CC(=O)O)cc(=O)oc2c1"
property_measured = "growth inhibition"
val = 7.35

[[record]]
molecule = "CC(=N/O)/C(C)=C/c1ccccc1"
property_measured = "growth inhibition"
val = 10.1


###

- test summary: NCI Yeast Anticancer Drug Screen. Data for the cln2 rad14 strain (AID 165);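 also: 0% = growth equal to vehicle treated cultures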
- condition: S. cerevisiae cln2 rad14 strain, at 50.0 µM
Compounds without any hit were thinned out: in the full panel of roughly 79,000, 15% have a hit. Activity calls are given as the source filed them. Cut-off read from the data, not from the text of the source: active = growth inhibition above about 70%; inactive = the rest.
Labels: active, inactive

[[record]]
compound = "O=C(OCC(OC(=O)c1ccccc1)C(OC(=O)c1ccccc1)C(OC(=O)c1ccccc1)C(COC(=O)c1ccccc1)OC(=O)c1ccccc1)c1ccccc1 (configuration not stated)"
label = "inactive"

[[record]]
compound = "N#CC(/C(=N/NC(N)=S)C(=O)Nc1cccc(Cl)c1)c1ccccc1 (configuration not stated)"
label = "inactive"

[[record]]
compound = "CC(=O)OCC1OC(n2c(C)c(N=Nc3ccc(C)cc3)c(C)c(C#N)c2=S)C(OC(C)=O)C(OC(C)=O)C1OC(C)=O (configuration not stated)"
label = "inactive"

[[record]]
compound = "CC(=O)Nc1c(C)cccc1[N+](=O)[O-]"
label = "inactive"

[[record]]
compound = "Cc1ccccc1N=Cc1ccccc1[N+](=O)[O-]"
label = "inactive"

[[record]]
compound = "OC(c1ccc(Cl)cc1)c1nc2ccccc2[nH]1 (configuration not stated)"
label = "inactive"

[[record]]
compound = "NC(=O)c1cccc2c1OCO2"
label = "inactive"

[[record]]
compound = "C(=N/NC(=N/N=C/c1ccccc1)N/N=C/c1ccccc1)/c1ccccc1"
label = "inactive"

[[record]]
compound = "CC(CN(C)C)N(C)C (configuration not stated)"
label = "inactive"

[[record]]
compound = "COC(=O)OC/C=C\\COC(=O)OC"
label = "inactive"

[[record]]
compound = "Cn1c(=O)c2c(n(C)c1=O)[n+]([O-])c([N+]1([O-])CCOCC1)n2C"
label = "inactive"

[[record]]
compound = "CCN(CC)c1ccc(/C=C(\\C#N)C(N)=S)cc1"
label = "inactive"

[[record]]
compound = "NC(=O)c1cccc(F)c1"
label = "inactive"

[[record]]
compound = "CCOC(=O)/C(C#N)=C/NCC1CC1"
label = "inactive"

[[record]]
compound = "CNc1nc(Cl)cc2nc(Cl)cn12"
label = "inactive"

[[record]]
compound = "CC(C)(C)C(=O)C(C(c1ccccc1)N1CCOCC1)N1CCOCC1 (configuration not stated)"
label = "inactive"

[[record]]
compound = "CN(C)c1ccc(/C=C(/NC(=O)c2ccccc2)C(N)=O)cc1"
label = "inactive"

[[record]]
compound = "COC(=O)c1c[nH]c(C=O)c1C"
label = "inactive"

[[record]]
compound = "CC1(C)C(=NNc2ccccc2)C(C)(C)C1=NNc1ccccc1"
label = "active"

[[record]]
compound = "CSc1nc(=S)c2[nH]c(Cl)nc2[nH]1"
label = "inactive"

[[record]]
compound = "CC(C)CCCC(C)C1CCC2(C)C3CCC4C(C)(C)C(OCC(C)(C)C)CCC4(C)C3CCC12C (configuration not stated)"
label = "inactive"

[[record]]
compound = "Cc1ccc(/C=C/C(=N/Nc2ccccc2)C(C)CN(C)C)cc1 (configuration not stated)"
label = "inactive"

